Biological target: T1, oligopeptide YPSGHLDM (SEQ ID NO: 97)
T1 construct: Synthetic peptide, part of Loop C of AQP3; first diluted in DMSO
T1 peptide: YPSGHLDM
Assay: ELISA on coated peptide
// reported binding signal (plate reader) for each item listed
Measured Quantity: binding signal (plate reader)

>  <Binder>
SC-F8 (IgG) (antibody, V domains shown, also called anti AQP3 antibody SC-F8) VH: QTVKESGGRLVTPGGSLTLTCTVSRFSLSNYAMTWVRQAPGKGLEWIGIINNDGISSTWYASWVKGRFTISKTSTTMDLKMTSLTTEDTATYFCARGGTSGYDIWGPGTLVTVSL VL: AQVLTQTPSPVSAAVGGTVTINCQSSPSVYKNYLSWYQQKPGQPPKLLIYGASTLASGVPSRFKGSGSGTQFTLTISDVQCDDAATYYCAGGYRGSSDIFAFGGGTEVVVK

>  <Measured Quantity>
binding signal (plate reader)

>  <Test Result>
3.94

$$$$
>  <Binder>
BC-H9 (IgG) (antibody, V domains shown, also called anti AQP3 antibody BC-H9) VH: QSLEESGGRLVTPGTPLTLTCTVSGFSLYTYAMGWVRQAPGKGLEWIGIINNDGISSTWYASWVKGRFTISKTSTTMDLKMTSLTTEDTATYFCARGGTSGYDIWGPGTLVTVSL VL: AQGLTQTPSPVSAAVGGTVTINCQSGPSVYKNYLSWYQQKAGQPPKLLIYGASTLASGVPSRFKGSGSGTQFTLTISDVQCDDAATYYCAGGYRGSSDIFAFGGGTEVVVK

>  <Measured Quantity>
binding signal (plate reader)

>  <Test Result>
3.94

$$$$
>  <Binder>
SC-B6 (IgG) (antibody, V domains shown, also called anti AQP3 antibody SC-B6) VH: QSVKESGGRLVTPGAPLTLTCTVSGFSLNNYAMTWVRQAPGKGLEWIGIINNDGISSTWYASWVKGRFIISKTSTTVDLKMTSLTTEDTATYFCARGGTSGYDIWGPGTLVTVSL VL: AQGPTQTPSPVSAAVGGTVTINCQSSPSVYKNYLSWYQQKPGQPPKLLIYGASTLASGVPSRFKGSRSGTQFTLTISDVQCDDAATYYCAGGYIGSRDIFSFGGGTEVVVK

>  <Measured Quantity>
binding signal (plate reader)

>  <Test Result>
3.96

$$$$
>  <Binder>
Antibody C (antibody, mouse IgG2a, kappa, V domains shown, also called anti AQP3 antibody C) VH: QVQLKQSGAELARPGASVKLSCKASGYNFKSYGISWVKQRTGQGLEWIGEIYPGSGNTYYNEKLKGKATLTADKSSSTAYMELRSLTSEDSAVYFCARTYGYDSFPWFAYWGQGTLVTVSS VL: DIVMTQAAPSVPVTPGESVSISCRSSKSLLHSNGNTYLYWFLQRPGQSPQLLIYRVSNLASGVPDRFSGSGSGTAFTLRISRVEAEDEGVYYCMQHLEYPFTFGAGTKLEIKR

>  <Measured Quantity>
binding signal (plate reader)

>  <Test Result>
1.58

$$$$
>  <Binder>
Antibody J (antibody, mouse IgG2a, kappa, V domains shown, also called anti AQP3 antibody J) VH: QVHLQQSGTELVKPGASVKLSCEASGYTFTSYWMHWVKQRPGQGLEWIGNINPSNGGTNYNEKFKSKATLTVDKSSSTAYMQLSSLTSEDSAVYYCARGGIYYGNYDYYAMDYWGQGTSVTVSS VL: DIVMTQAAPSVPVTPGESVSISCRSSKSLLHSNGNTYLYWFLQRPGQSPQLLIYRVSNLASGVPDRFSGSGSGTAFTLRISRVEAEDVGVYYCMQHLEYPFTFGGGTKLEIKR

>  <Measured Quantity>
binding signal (plate reader)

>  <Test Result>
0.086

$$$$
>  <Binder>
BC-B10 (IgG) (antibody, V domains shown, also called anti AQP3 antibody BC-B10) VH: QSVEESGGRLVTPGAPLTLTCTVSRFSLSSYAMTWVRQAPGKGLEWIGIINNDVISSTWYASWVKGRFTISKTSTTMELKMTSLTTEDTATYFCARGGTSGYDIWGPGTLVTVSS VL: AIKMTQTPSPVSAAVGGTVTINCQSSPSVYKNYLSWYQQKPGQPPKLLIYGASTLASGVPSRFKGSGSGTQFTLTISDVQCDDAATYYCAGGYIGSRDIFSFGGGTEVVVK

>  <Measured Quantity>
binding signal (plate reader)

>  <Test Result>
3.96

$$$$
